target: T1, purified recombinant MHC II protein, allele DRB1*0101 (human); assay: MHC II competition binding assay
T1 construct: bought from Benaroya Research Institute; also called MHC-II DR molecule
readoutType: pIC50
Here pIC50 is given on a logarithmic scale as minus log10 of the concentration in mol/L.

Form field: reported pIC50 of SAQWLNNYKKGYGYG [cluster 1 wild-type (C1WT) epitope peptide] 3.67
